- Test system: ASPC1
- experiment_description: Antiproliferative activity against human ASPC1 cells assessed as reduction in cell viability measured after 72 hrs
- Assay type: functional, cell-based
- run_parameters: ASPC1, 72 h
pIC50: −log10 of the molar value.
observed_property: pIC50

Measured on ASPC1, C=CC(=O)N1CCCC(n2nc3c(=O)[nH]nc(N)c3c2-c2oc3ccc(C)cc3c2C)C1 (stereo unspecified) has a documented pIC50 of < 5.00

* * *

- Test system: A549
- experiment_description: Antiproliferative activity against human A549 cells assessed as reduction in cell viability measured after 72 hrs
- Format: functional, cell-based
- run_parameters: A549, 72 h
pIC50: −log10 of the molar value.
observed_property: pIC50

// pIC50 lookup, molecule = C=CC(=O)N1CCCC(n2nc3c(=O)[nH]nc(N)c3c2-c2oc3ccc(C)cc3c2C)C1 (stereo unspecified) , result: < 5.00

* * *

- Test system: SU.86.86
- experiment_description: Antiproliferative activity against human SU-86-86 cells assessed as reduction in cell viability measured after 72 hrs
- Type: functional, cell-based
- run_parameters: SU.86.86, 72 h
observed_property: IC50

Notebook: C=CC(=O)N1CCCC(n2nc3c(=O)[nH]nc(N)c3c2-c2oc3ccc(C)cc3c2C)C1 (stereo unspecified) , IC50 read as > 10 µM

* * *

- experiment_description: Stability in rat whole blood assessed as parent compound remaining measured upto 5 hrs by LC-MS/MS analysis
- Type: ADME, tissue-based

{"columns": ["compound", "Stability"],
 "data": [
  ["CC#CC(=O)N1CCC(n2nc3c(=O)[nH]nc(N)c3c2-c2oc3ccc(C)cc3c2C)CC1", "Stable"],
  ["C=CC(=O)N1CCC(n2nc3c(=O)[nH]nc(N)c3c2-c2oc3ccc(C)cc3c2C)CC1", "Stable"],
  ["C=CC(=O)N1CCCC(n2nc3c(=O)[nH]nc(N)c3c2-c2oc3ccc(C)cc3c2C)C1 (centres undefined)", "Stable"]
]}

* * *

- tested_target: Fibroblast growth factor receptor 1 (Homo sapiens, UniProt P11362, V561M)
- Sequence (P11362 22-822 V561M limits assumed): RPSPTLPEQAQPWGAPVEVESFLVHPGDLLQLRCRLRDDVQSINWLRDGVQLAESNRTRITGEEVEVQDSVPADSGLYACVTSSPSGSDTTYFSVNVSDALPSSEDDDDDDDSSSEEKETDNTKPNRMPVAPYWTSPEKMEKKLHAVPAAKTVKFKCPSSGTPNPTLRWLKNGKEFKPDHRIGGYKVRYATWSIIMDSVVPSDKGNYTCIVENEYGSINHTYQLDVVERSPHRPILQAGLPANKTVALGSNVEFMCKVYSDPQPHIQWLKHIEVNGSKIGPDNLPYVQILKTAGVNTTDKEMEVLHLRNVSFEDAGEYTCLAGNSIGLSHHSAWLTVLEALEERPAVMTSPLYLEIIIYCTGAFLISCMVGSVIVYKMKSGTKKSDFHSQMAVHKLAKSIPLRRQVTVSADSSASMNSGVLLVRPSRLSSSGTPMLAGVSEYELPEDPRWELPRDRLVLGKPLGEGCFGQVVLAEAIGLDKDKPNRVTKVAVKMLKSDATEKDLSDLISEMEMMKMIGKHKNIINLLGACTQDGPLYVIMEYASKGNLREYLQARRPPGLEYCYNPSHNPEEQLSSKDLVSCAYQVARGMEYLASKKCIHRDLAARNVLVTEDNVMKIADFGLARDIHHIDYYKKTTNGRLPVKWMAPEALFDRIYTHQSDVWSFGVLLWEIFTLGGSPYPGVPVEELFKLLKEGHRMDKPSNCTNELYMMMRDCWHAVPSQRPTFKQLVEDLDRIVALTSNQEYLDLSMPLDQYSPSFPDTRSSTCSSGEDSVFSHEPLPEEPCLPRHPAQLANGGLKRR
- experiment_description: Inhibition of human recombinant FGFR1 V561M mutant (456 to 765 residues) using GGEEEEYFELVKK as substrate incubated for 40 mins presence of [gamma-33P]-ATP by radiometric based scintillation counter assay
observed_property: IC50

Reported IC50 for C=CC(=O)N1CCCC(n2nc3c(=O)[nH]nc(N)c3c2-c2oc3ccc(C)cc3c2C)C1 (stereo unspecified) was > 5 µM

* * *

- tested_target: Fibroblast growth factor receptor 2 (Homo sapiens, UniProt P21802, V564F)
- Sequence (P21802 22-821 V564F limits assumed): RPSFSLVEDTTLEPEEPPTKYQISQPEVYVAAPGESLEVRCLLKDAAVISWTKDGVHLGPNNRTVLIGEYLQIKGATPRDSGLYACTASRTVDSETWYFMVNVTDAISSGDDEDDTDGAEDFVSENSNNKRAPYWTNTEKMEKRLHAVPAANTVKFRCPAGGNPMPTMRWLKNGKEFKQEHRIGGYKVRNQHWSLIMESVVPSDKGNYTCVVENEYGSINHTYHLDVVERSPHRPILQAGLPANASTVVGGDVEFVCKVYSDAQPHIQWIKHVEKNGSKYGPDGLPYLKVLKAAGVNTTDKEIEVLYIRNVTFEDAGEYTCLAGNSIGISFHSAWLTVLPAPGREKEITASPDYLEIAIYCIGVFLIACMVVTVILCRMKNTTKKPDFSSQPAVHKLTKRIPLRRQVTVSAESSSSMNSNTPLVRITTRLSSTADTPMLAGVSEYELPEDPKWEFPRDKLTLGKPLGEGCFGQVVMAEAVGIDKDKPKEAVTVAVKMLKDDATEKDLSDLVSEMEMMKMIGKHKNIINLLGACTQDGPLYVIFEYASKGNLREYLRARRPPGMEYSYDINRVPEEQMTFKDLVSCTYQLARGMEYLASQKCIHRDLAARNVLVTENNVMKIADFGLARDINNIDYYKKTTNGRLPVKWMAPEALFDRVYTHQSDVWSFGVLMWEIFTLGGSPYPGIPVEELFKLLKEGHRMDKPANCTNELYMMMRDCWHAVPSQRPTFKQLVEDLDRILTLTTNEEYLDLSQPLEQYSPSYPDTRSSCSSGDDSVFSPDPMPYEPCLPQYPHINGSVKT
- experiment_description: Inhibition of FGFR2 V564F mutant (unknown origin)
observed_property: pIC50
Just the number, please; pIC50 means minus log10 of the concentration in mol/L.

pIC50 reading for C=CC(=O)N1CCCC(n2nc3c(=O)[nH]nc(N)c3c2-c2oc3ccc(C)cc3c2C)C1 (stereo unspecified) : 5.54

* * *

observed_property: IC50 (nM)
Respond with the bare value in nM.

The compound C=CC(=O)N1CCC(n2nc3c(=O)[nH]nc(N)c3c2-c2oc3ccc(C)cc3c2C)CC1 , when measured on Fibroblast growth factor receptor 2 (Homo sapiens), yielded IC50 of 4.4

* * *

- tested_target: Fibroblast growth factor receptor 1 (Homo sapiens, UniProt P11362)
- Sequence (P11362 22-822 limits assumed): as the sequence (P11362 22-822 V561M limits assumed) above, with M540V counted along it
- run_parameters: dose 100.0 nM, time 60.0 min
Consider the reported inhibition of an entry and match it to a band in A = under 30%, B = from 30% up to 40%, C = 40% and over

Where would C=CC(=O)N1CCCC(n2nc3c(=O)[nH]nc(N)c3c2-c2oc3cc(OC)ccc3c2C)C1 (racemic) land among the classes by reported inhibition? A

Bin this entry: Cc1ccc2oc(-c3c4c(N)n[nH]c(=O)c4nn3C3CCCN(C(=O)CC#N)C3)c(C)c2c1 (racemic) B

Would you mind sorting C=CC(=O)N1CCC(n2nc3c(=O)[nH]nc(N)c3c2-c2oc3ccc(F)cc3c2C)CC1 into the appropriate category? A

Which category does the recorded inhibition put C/C=C(\C)C(=O)N1CCCC(n2nc3c(=O)[nH]nc(N)c3c2-c2oc3ccc(C)cc3c2C)C1 (racemic) in? B

Hi, small favor: classify C=CC(=O)N1CCC(n2nc3c(=O)[nH]nc(N)c3c2-c2oc3cc(OC)cc(OC)c3c2C)CC1 by its inhibition when you get a moment. C

For this compound, which bin applies? C=CC(=O)N1CCC(n2nc3c(=O)[nH]nc(N)c3c2-c2oc3ccc(C)cc3c2C)CC1 C

Sort C=CC(=O)N1CCCC(n2nc3c(=O)[nH]nc(N)c3c2-c2oc3ccc(C)cc3c2C)C1 (centres undefined) into one of the categories. C

GET /class?item= C=CC(=O)N1CCC(n2nc3c(=O)[nH]nc(N)c3c2-c2oc3ccc(C(F)(F)F)cc3c2C)CC1 A

Hi there! Could you help me figure out the category for C=C(C)C(=O)N1CCCC(n2nc3c(=O)[nH]nc(N)c3c2-c2oc3ccc(C)cc3c2C)C1 (racemic) please? B

For C=CC(=O)N1CCC(Cn2nc3c(=O)[nH]nc(N)c3c2-c2oc3ccc(C)cc3c2C)CC1 , which inhibition bin applies? C

Kindly state the category for this compound: C=CC(=O)N1CCCC(n2nc3c(=O)[nH]nc(N)c3c2-c2oc3cccc(OC)c3c2C)C1 (racemic) B

Hi there! Could you help me figure out the category for C=CC(=O)N1CCC(n2nc3c(=O)[nH]nc(N)c3c2-c2oc3ccc(OC)cc3c2C)CC1 please? C

Lab log: C=CC(=O)N[C@H]1CC[C@H](n2nc3c(=O)[nH]nc(N)c3c2-c2oc3ccc(C)cc3c2C)CC1 — assign inhibition category C

* * *

- Tested on: NCI-H727
- experiment_description: Antiproliferative activity against human NCI-H727 cells assessed as reduction in cell viability measured after 72 hrs
- Format: functional, cell-based
- run_parameters: NCI-H727, 72 h
observed_property: IC50

get_value(item= C=CC(=O)N1CCCC(n2nc3c(=O)[nH]nc(N)c3c2-c2oc3ccc(C)cc3c2C)C1 (stereo unspecified) , readout=IC50) returns > 10 µM

* * *

- experiment_description: MRT in CD-1 mouse at 3 mg/kg, po measured after 24 hrs by LC-MS/MS analysis
- Assay type: ADME, organism-based
- run_parameters: in vivo
observed_property: MRT (h)
Numeric answer only, unit h assumed.

Measured MRT of C=CC(=O)N1CCCC(n2nc3c(=O)[nH]nc(N)c3c2-c2oc3ccc(C)cc3c2C)C1 (stereo unspecified) : 1.16

* * *

- experiment_description: Oral bioavailability in CD-1 mouse at 3 mg/kg measured after 24 hrs by LC-MS/MS analysis
- Format: ADME, organism-based
- run_parameters: in vivo
observed_property: bioavailability (%)
Write the answer as a number in %, unit excluded.

bioavailability measured on C=CC(=O)N1CCCC(n2nc3c(=O)[nH]nc(N)c3c2-c2oc3ccc(C)cc3c2C)C1 (stereo unspecified) = 20.4

* * *

- experiment_description: Solubility of compound in PBS at pH 7.4 at 1 to 100 microg/ml by laser nephelometry analysis
- Assay type: physicochemical
- run_parameters: dose 1-100 µg/ml
observed_property: solubility kinetic (µg/mL)
// units = µg/mL; emit number, no label

Measured solubility kinetic, C=CC(=O)N1CCC(n2nc3c(=O)[nH]nc(N)c3c2-c2oc3cc(F)ccc3c2C)CC1 : 10

Looking up C=C(F)C(=O)N1CCC(n2nc3c(=O)[nH]nc(N)c3c2-c2oc3ccc(C)cc3c2C)CC1 , I see its solubility kinetic listed as 10

response.value for Cc1ccc2oc(-c3c4c(N)n[nH]c(=O)c4nn3C3CCCN(C(=O)/C=C/CN(C)C)C3)c(C)c2c1 (racemic) (field: solubility kinetic) = 10

// sample C=CC(=O)N1CCC(n2nc3c(=O)[nH]nc(N)c3c2-c2oc3ccc(C)cc3c2C)CC1 , its solubility kinetic was 10

* * *

- Test system: NCI-H226
- experiment_description: Antiproliferative activity against human NCI-H226 cells assessed as reduction in cell viability measured after 72 hrs
- Format: functional, cell-based
- run_parameters: NCI-H226, 72 h
pIC50: −log10 of the molar value.
observed_property: pIC50

Documented pIC50 of C=CC(=O)N1CCCC(n2nc3c(=O)[nH]nc(N)c3c2-c2oc3ccc(C)cc3c2C)C1 (stereo unspecified) : < 5.00

* * *

- experiment_description: Tmax in CD-1 mouse at 3 mg/kg, po measured after 24 hrs by LC-MS/MS analysis
- Format: ADME, organism-based
- run_parameters: in vivo
observed_property: Tmax
Kindly report the value followed by its unit.

Tmax measured on C=CC(=O)N1CCCC(n2nc3c(=O)[nH]nc(N)c3c2-c2oc3ccc(C)cc3c2C)C1 (stereo unspecified) = 15 min

* * *

- Test system: NCI-H1299
- experiment_description: Antiproliferative activity against human NCI-H1299 cells assessed as reduction in cell viability measured after 72 hrs
- Assay type: functional, cell-based
- run_parameters: NCI-H1299, 72 h
observed_property: IC50

Briefly, IC50 measured for C=CC(=O)N1CCCC(n2nc3c(=O)[nH]nc(N)c3c2-c2oc3ccc(C)cc3c2C)C1 (stereo unspecified) : > 10 µM
